Read-out: Tumor necrosis factor (Homo sapiens) (UniProt P01375)
Sequence (P01375 whole entry, looked up): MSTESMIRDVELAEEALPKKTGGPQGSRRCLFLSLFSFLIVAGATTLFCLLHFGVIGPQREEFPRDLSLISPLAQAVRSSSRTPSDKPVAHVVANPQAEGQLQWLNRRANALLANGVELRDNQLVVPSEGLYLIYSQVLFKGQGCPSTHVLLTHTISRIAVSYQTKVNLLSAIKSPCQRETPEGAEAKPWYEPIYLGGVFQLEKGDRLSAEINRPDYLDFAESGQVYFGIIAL
Experiment: BSK_BT_xTNFa: BioMAP Diversity Plus: BT Assay for Tumor necrosis factor alpha (TNF-alpha) Biomarker Activity (AID 2284230)
Details: primary human B cells with PBMC
Method: BSK_BT is a cell-based, multiplexed-readout assay that uses B cell and peripheral blood mononuclear cells, a human vascular primary cell co-culture, with measurements taken at 24 hours after chemical dosing in a microplate: 96-well plate.BSK_BT_xTNFa is an assay component of the BSK_BT assay. […] Using a type of cytokine quantitation reporter, gain or loss-of-signal activity can be used to understand protein changes. […]
The source made the active and inactive calls. The calls were made as follows: active = hit-call score of the fitted dose curve at least 0.9, where 1 is the maximum; inactive = score below 0.9.
Respond with a class label; see 1 for active, -1 for inactive

smiles_repr=O=C(NO)c1ccccc1 classification=1
smiles_repr=CN(CCO)S(=O)(=O)C(F)(F)C(F)(F)C(F)(F)C(F)(F)C(F)(F)C(F)(F)C(F)(F)C(F)(F)F classification=-1
smiles_repr=COC1=CC(=O)C[C@@H](C)[C@]12Oc1c(Cl)c(OC)cc(OC)c1C2=O classification=1
smiles_repr=O=C1OC2(c3ccccc31)c1cc(I)c(O)c(I)c1Oc1c2cc(I)c(O)c1I classification=-1

Here is the next item to consider.
Query: Dear all, I need the recorded test outcome for Oc1cc2ccccc2cc1O , thank you.
Result: -1

###

Experiment: ACEA_AR_agonist_AUC_viability: ACEA Biosciences xCELLigence Real-Time Cell Analysis on Androgen Receptor Agonism for Viability (AID 2283775);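 also: viability read 80 hours after compound addition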
Records with an inconclusive call do not appear. Activity calls are given as the source filed them. How the source made its calls: active means hit-call score of the fitted dose curve at least 0.9, where 1 is the maximum; inconclusive means response in the unintended direction; inactive means score below 0.9.
Respond with a class label; see true (1) = active, false (0) = inactive

Below are worked cases with known answers.
smiles_repr=Cc1[nH]nc2c1N=C(c1ccccc1Cl)c1cc([N+](=O)[O-])ccc1N2 classification="true (1)"
smiles_repr=CCCCc1oc2ccccc2c1C(=O)c1cc(I)c(OCCN(CC)CC)c(I)c1 classification="true (1)"

Query: Dear all, I need the recorded test outcome for CN(Cc1cnc2nc(N)nc(N)c2n1)c1ccc(C(=O)N[C@@H](CCC(=O)O)C(=O)O)cc1 , thank you.
Result: true (1)

###

Assay: ATG_TA_CIS: Attagene CIS-FACTORIAL HepG2 Assay for human TA Basal Promoter (AID 2282964)
Details: HepG2 Attagene CIS-factorial TA basal promoter reporter; actives raise or lower the signal
Active and inactive are the calls of the source. How the source made its calls: active means hit-call score of the fitted dose curve at least 0.9, where 1 is the maximum; inactive means score below 0.9.
Respond with a class label; see active, inactive

Below are worked cases with known answers.
compound=CCC(=O)O classification=inactive
compound=NNC(=O)CCCCC(=O)NN classification=inactive
compound=CCOC=C(C(=O)OCC)C(=O)OCC classification=inactive

Query: Dear all, I need the recorded test outcome for c1ccc2c(c1)CCC2 , thank you.
Result: inactive

Query: Dear all, I need the recorded test outcome for O=C1NS(=O)(=O)c2ccccc21 , thank you.
Result: inactive

###

Experiment: BSK_hDFCGF_Proliferation: Cell Proliferation Assessment in the BioMAP Diversity Plus: hDFCGF Assay (AID 2283059);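 also: curves fitted for both rise and fall of signal versus DMSO baseline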
Settings: primary human foreskin fibroblasts
Active and inactive are the calls of the source. Rule for the calls: active = hit-call score of the fitted dose curve at least 0.9, where 1 is the maximum; inactive = score below 0.9.
Measured endpoint: AC50

Check out these entries, answers already filled in.
compound=CCCCC=O measured_endpoint=AC50 endpoint_value=inactive
compound=C=COC(=O)C(C)(C)CCCCCC measured_endpoint=AC50 endpoint_value="31.7 µM (active)"
compound="C=CC(C)(CCC=C(C)C)OC(C)=O (stereo unspecified)" measured_endpoint=AC50 endpoint_value="24.7 µM (active)"
compound=Cc1cccc2c1ccc1ccccc12 measured_endpoint=AC50 endpoint_value=inactive
compound=CCCCCCCCCCCCOS(=O)(=O)O measured_endpoint=AC50 endpoint_value="16 µM (active)"

Query: Need AC50 of CCCCCc1ccc(O)cc1 , thanks.
Result: 8.97 µM (active)

Query: Need AC50 of Cc1ccc(C(=O)c2ccccc2)cc1 , thanks.
Result: 32.4 µM (active)

Query: Need AC50 of O=C(NO)c1ccccc1 , thanks.
Result: 3.81 µM (active)

Query: Need AC50 of CN(CCO)S(=O)(=O)C(F)(F)C(F)(F)C(F)(F)C(F)(F)C(F)(F)C(F)(F)C(F)(F)C(F)(F)F , thanks.
Result: inactive

Query: Need AC50 of NC(=NCCCCCCN=C(N)/N=C(\N)Nc1ccc(Cl)cc1)/N=C(\N)Nc1ccc(Cl)cc1 , thanks.
Result: 1.44 µM (active)

Query: Need AC50 of CCCCc1oc2ccccc2c1C(=O)c1cc(I)c(OCCN(CC)CC)c(I)c1 , thanks.
Result: 3.97 µM (active)
